These entries and their values trace back to the supplement of paper PMC10266784.

B1: library; numbered along this chain (parent)
chain: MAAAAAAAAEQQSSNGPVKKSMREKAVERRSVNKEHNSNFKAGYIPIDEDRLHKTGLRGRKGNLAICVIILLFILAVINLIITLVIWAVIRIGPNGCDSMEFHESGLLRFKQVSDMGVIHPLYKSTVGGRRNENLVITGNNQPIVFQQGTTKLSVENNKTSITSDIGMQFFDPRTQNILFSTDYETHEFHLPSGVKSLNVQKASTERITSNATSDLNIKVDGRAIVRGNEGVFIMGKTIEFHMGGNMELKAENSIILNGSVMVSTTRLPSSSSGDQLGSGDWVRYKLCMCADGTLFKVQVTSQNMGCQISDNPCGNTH

- Variants of: B1
- test.details: SGCB cell-surface expression functional score (HA stain, bin4 vs bin1, normalised to synonymous) (log10 ratio); higher = more cell-surface SGCB (functional)
endpoint.label: SGCB cell-surface expression functional score (log10)

- mutation.annotation: "T205G"
  numeric.value: -1.7
- mutation.annotation: "A9H"
  numeric.value: 0.18
- mutation.annotation: "A3R"
  numeric.value: 0.15
- mutation.annotation: "I234G"
  numeric.value: -1
- mutation.annotation: "Q169F"
  numeric.value: -1.89
- mutation.annotation: "I81M"
  numeric.value: -0.08
- mutation.annotation: "V200M"
  numeric.value: -0.63
- mutation.annotation: "V200I"
  numeric.value: 0.17
- mutation.annotation: "A76E"
  numeric.value: 0.02
- mutation.annotation: "G43F"
  numeric.value: -0.52
- mutation.annotation: "I45A"
  numeric.value: 0.33
